Values compiled from patent US7968548B2.

biological target: MC5-R (Homo sapiens, UniProt P33032); construct: expressed in transfected cells; host or cells: HEK-293; experiment: Competitive inhibition binding assay using [I125]-NDP-α-MSH, HEK-293 membranes, recombinant hMC5-R; conditions: 1 μM compound
Sequence (P33032 whole entry): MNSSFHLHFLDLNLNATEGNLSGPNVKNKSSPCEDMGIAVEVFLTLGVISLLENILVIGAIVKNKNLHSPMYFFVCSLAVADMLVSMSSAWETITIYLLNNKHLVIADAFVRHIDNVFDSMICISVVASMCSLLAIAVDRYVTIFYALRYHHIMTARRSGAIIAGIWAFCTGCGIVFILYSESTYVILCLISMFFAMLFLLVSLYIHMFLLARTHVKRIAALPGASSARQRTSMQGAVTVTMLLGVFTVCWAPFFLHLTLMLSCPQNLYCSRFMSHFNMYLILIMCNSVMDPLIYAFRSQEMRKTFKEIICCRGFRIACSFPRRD
REPORTED PROPERTY: inhibition at 1 µM (%)

[A] Cc1ccc(C[C@@H](N)C(=O)N2C[C@@H](C)N(C(=O)[C@H](N)Cc3ccc(C)cc3C)C[C@@H]2CCCNCCN)c(C)c1
[B] Cc1ccc(C[C@@H](N)C(=O)N2C[C@H](CCCNCCN)N(C(=O)[C@H](N)Cc3ccc(C)cc3C)C[C@H]2CC2CCCCC2)c(C)c1
Qu. # returns the entry with the larger inhibition at 1 µM; inputs A and B # answer = label of selected item
Ans. A
(A: 76%, B: 43%)

[1] CC(C)C[C@@H]1CN(C[C@@H](Cc2ccc(Cl)cc2Cl)N(C)C)[C@@H](CCCN(C)CCN)CN1C(=O)Cc1ccc2ccccc2c1
[2] C[C@@H]1CN(C(=O)[C@H](N)Cc2ccc(Cl)cc2Cl)[C@@H](CCCNCCN)CN1C(=O)[C@H](N)Cc1ccc(Cl)cc1Cl
Qu. // returns 1 or 2 , whichever has the lower inhibition at 1 µM Write down the label of the entry you select.
Ans. 1
(1: 65%, 2: 93%)

###

Target: MC3-R (Homo sapiens)
Construct: expressed in transfected cells; host or cells: HEK-293
Sequence (P41968 whole entry): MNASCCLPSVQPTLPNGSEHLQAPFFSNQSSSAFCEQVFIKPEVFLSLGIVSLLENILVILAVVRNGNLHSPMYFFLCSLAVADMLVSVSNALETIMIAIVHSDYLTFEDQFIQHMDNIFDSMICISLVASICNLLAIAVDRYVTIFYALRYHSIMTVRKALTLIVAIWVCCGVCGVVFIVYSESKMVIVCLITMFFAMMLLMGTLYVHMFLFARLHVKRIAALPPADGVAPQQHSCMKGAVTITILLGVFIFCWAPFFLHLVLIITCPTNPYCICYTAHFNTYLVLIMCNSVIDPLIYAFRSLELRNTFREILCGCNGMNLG
Assay: Competitive inhibition binding assay using [I125]-NDP-α-MSH, HEK-293 membranes, recombinant hMC3-R
Details: 1 μM compound
Procedure: A competitive inhibition binding assay was performed using membrane homogenates prepared from HEK-293 cells that express recombinant hMC4-R, hMC3-R, or hMC5-R, and from B-16 mouse melanoma cells (containing endogenous MC1-R). […] Filters were dried and counted in a gamma counter for bound radioactivity. […] Maximal specific binding (100%) was defined as the difference in radioactivity (cpm) bound to cell membranes in the absence and presence of 1 μM NDP-α-MSH. […]
REPORTED PROPERTY: inhibition at 1 µM (%)

# COMPOUND, inhibition at 1 µM, %
rows = [
    ("CC(C)C[C@@H]1CN(C(=O)[C@H](N)Cc2ccc(Cl)cc2Cl)[C@@H](CCCCNCCN)CN1C(=O)Cc1ccc2ccccc2c1 [Example 1]", 71),
]

[1] CC(C)C[C@@H]1CN(C(=O)[C@H](N)Cc2ccc3ccccc3c2)[C@@H](CCCCNCCN)CN1C(=O)[C@H](N)Cc1ccc2ccccc2c1 [Example 20]
[2] Cc1ccc(C[C@H](CN2C[C@@H](C)N(C(=O)Cc3ccc4ccccc4c3)C[C@@H]2CCCN(C)C2CCN(C)C2)N(C)C)c(C)c1 (stereo partly shown) [Example 7]
Qu. Dear colleague, could you let me know whether 1 or 2 has the lower recorded inhibition at 1 µM? Thanks. The response must carry the label of the picked entry.
Ans. 2

[1] CC(C)C[C@@H]1CN(C(=O)[C@H](N)Cc2ccc(Cl)cc2Cl)[C@@H](CCCCNCCN)CN1C(=O)[C@H](N)Cc1ccc(Cl)cc1Cl [Example 19]
[2] Cc1ccc(C[C@@H](N)C(=O)N2C[C@H](CCCNCCN)N(C(=O)[C@H](N)Cc3ccc(C)cc3C)C[C@H]2CC2CCCCC2)c(C)c1 [Example 14]
Qu. Which numeric inhibition at 1 µM is bigger, that of 1 or that of 2 ? Refer to your chosen entry by its label in the reply.
Ans. 1
(1: 59%, 2: 22%)
